# System Under Test: T1, extracellular domain of human KLB expressed with C-terminal HA and hexahistidine tags (human, UniProt Q86Z14 1-996)
# T1 construct: also called hKLB-HA-6His; hKLB-HA-6his
# T1 sequence: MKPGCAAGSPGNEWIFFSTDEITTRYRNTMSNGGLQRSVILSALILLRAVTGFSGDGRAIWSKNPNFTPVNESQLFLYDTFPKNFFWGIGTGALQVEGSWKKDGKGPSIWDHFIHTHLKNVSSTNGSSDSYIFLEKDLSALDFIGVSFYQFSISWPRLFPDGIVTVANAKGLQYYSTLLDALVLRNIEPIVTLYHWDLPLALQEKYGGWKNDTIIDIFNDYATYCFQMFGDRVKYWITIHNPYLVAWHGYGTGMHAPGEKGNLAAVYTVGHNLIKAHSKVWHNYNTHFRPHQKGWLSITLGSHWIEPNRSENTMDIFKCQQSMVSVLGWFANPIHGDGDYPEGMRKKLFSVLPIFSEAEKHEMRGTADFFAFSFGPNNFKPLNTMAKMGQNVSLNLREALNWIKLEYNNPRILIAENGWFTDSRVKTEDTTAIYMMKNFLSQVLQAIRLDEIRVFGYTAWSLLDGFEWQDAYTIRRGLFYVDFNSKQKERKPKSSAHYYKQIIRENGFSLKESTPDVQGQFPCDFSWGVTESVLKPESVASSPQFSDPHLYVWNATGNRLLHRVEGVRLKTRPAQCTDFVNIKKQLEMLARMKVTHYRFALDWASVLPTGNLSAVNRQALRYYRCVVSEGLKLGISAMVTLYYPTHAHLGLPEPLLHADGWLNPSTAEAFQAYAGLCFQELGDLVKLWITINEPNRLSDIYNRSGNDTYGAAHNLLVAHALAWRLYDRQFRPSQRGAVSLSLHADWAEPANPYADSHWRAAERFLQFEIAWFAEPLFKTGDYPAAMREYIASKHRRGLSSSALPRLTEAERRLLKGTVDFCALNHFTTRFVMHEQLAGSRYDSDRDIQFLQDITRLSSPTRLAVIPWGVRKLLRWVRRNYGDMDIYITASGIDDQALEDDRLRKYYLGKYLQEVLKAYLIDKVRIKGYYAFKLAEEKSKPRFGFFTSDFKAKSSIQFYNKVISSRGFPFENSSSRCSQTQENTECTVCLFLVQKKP
# Assay Overview: SPR, mAb captured, 37 C
What t1/2 was measured for each of the following?
Provide the reading as a plain figure in h.

Problem: Quick one: t1/2 of H2aM8109N (antibody, V domains shown, mouse IgG2 Fc (H2aM prefix)) VH: QVQVVESGGGVVQPGRSLRLSCAASGFTFSSYGLHWVRQAPGKGLEWVAVIWHDGSHKYYADSVKGRFTISRDNSKNTLYLQMNSLRAEDTAVYYCARDGIPVAEDYYFYGMDVWGQGTTVTVSS VL: DIQMTQSPSSLSASVGDRVTITCRASQGIRNDLGWYQQKPGKAPKRLIYAASSLQSGVPSRFSGSGSGTEFTLTISSLQPEDFAIYYCLQHNSLTFGGGTKVEIK ?
Result: 0.147

Problem: Quick one: t1/2 of H4H8878P (antibody, V domains shown, human IgG4 Fc (H4H prefix)) VH: QVQLVESGGGVVQPGRSLRLSCAASGFTLNTYGMHWIRQTPGKGLEWVSLISYDETKEYYVDSVKGRFTISRDNSKNTLYLQMNSVRVEDTAVYYCAKPLTGSTDYYYGLDVWGQGTTVTVSS VL: DIQMTQSPSYVSASVGDRVIITCRASQDISSWLAWYQQKPGKAPKLLIYVTSSLESGVPSRFSGSGSGTDFTLTISGLQPEDFATYYCQQVKSFPPTFGPGTKVDIK ?
Result: 0.8

Problem: Quick one: t1/2 of H4H8837P (antibody, V domains shown, human IgG4 Fc (H4H prefix)) VH: QVQLVESGGGVVQPGRSLRLSCAASGFTFNSYAMHWVRQAPGMGLEWVAVISSDGSNKYYADSVRGRFTVSRDNSKNTLYLQMNSLRSEDTAVYYCAKDGRGYSSFSHFGMDVWGQGTTVTVSS VL: DIQMTQSPSTLSASVGDRVTITCRASQSIGSWLAWYQQKPGKAPKLLIYKTSSLESGVPSRFSGSGSGTEFTLTISSLQPDDFASYYCQQYNSYSFGQGTKVEIK ?
Result: 1.5

Problem: Quick one: t1/2 of H2aM8092N (antibody, V domains shown, mouse IgG2 Fc (H2aM prefix); also called H2M8092N) VH: QVQLQESGPGLVKPSETLSLTCTVSGGSISSYYWSWIRQPPGKGLDWIGHIYYSGTTYYNPSLKSRVSISLDTSKNQFSLKLSSVTAADTAVYYCARHLRGYSSGREFDYWGQGTLVTVSS VL: DIQMTQSPSSLSASVGGRVSLTCRASQSIFSYLNWYQQKPGKAPKLLIYAASNLQSGVPSRFSGSGSGTDFTLTISSLQPEDFATYSCQQSYNIPYTFGQGTKLEIK ?
Result: 2.41

Attribution: patent US20170174769A1
